- Tested on: MDBK line
- experiment: MTT Cell Proliferation Assay, MDBK cells
- Type: cell-based, bovine
- test.context: Bos taurus, MDBK, second value of 'a/b (c)'; taken as MDBK cells; read-out: MTT Screen, second value of cell
reported.endpoint: pIC50
Numbers only, as −log10 of the molar value.

Previously resolved entries follow.
CN1CCN(S(=O)(=O)c2ccc(NC(=S)NC(=O)/C=C/c3ccccc3)cc2)CC1    4.38
COc1ccc(NS(=O)(=O)c2ccc(NC(=S)NC(=O)C3CCCC3)cc2)cc1    4.84
COc1cc(NS(=O)(=O)c2ccc(NC(=S)NC(=O)/C=C/c3ccc(C)cc3)cc2)nc(OC)n1    4.41
O=C(NC(=S)Nc1ccc(S(=O)(=O)NC2CCCCC2)cc1)C1CC1    4.43
CN(c1ccccc1)S(=O)(=O)c1ccc(NC(=S)NC(=O)/C=C/c2ccccc2)cc1    4.71

Give measured pIC50 for every item shown.
1. Cc1cc(C)nc(NS(=O)(=O)c2ccc(NC(=S)NC(=O)/C=C/c3ccc(F)cc3)cc2)n1
2. COc1ccc(/C=C/C(=O)NC(=S)Nc2ccc(S(=O)(=O)Nc3nc(C)cc(C)n3)cc2)cc1
3. Cc1ccc(NS(=O)(=O)c2ccc(NC(=S)NC(=O)COc3ccc(Cl)cc3C)cc2)c(C)c1
4. CCc1nnc(NS(=O)(=O)c2ccc(NC(=S)NC(=O)/C=C/c3cccs3)cc2)s1
5. O=C(NC(=S)Nc1ccc(S(=O)(=O)NCCc2ccccc2)cc1)C1CC1

Output:
4.38
4.68
4.79
4.32
4.41

Give pIC50 for each listed item.
1. Cc1cc(C)cc(NS(=O)(=O)c2ccc(NC(=S)NC(=O)CCc3ccccc3)cc2)c1
2. CC(C)CC(=O)NC(=S)Nc1ccc(S(=O)(=O)Nc2ccccc2)cc1
3. CC1CCC(S(=O)(=O)c2ccc(NC(=S)NC(=O)C3CC3)cc2)CC1 (centres unmarked)
4. Cc1ccc(NS(=O)(=O)c2ccc(NC(=S)NC(=O)C3CC3)cc2)c(C)c1
5. Cc1ccc(NS(=O)(=O)c2ccc(NC(=S)NC(=O)C(C)C)cc2)c(C)c1

Output:
1. 5.28
2. 4.77
3. 4.59
4. 5.01
5. 4.73

Okay, here is my list. What is pIC50 for each of these?
1. CC1CCN(S(=O)(=O)c2ccc(NC(=S)NC(=O)C3CC3)cc2)CC1
2. Cc1cc(C)nc(NS(=O)(=O)c2ccc(NC(=S)NC(=O)/C=C/c3ccc(C(C)C)cc3)cc2)n1

Output:
1. 4.52
2. 5.02
